biological target: HLA-A*03:01; test: IEDB peptide-MHC binding, purified MHC/direct/fluorescence; filed as Kd, often an IC50 or EC50 that approximates it; bounds were set here for any values at or beyond the usual limits of such assays; settings: source organism: Entamoeba histolytica HM-1:IMSS
pKd: −log10 of the molar value.
REPORTED PROPERTY: pKd

>>> endpoint_value("KYWRQMIIK")
"≤ 4.70"

----------
biological target: HLA-A*26:01; experiment: IEDB peptide-MHC binding, purified MHC/competitive/fluorescence; filed as Kd, often an IC50 or EC50 that approximates it; bounds were set here for any values at or beyond the usual limits of such assays; details: source organism: Vibrio antiquarius
pKd: −log10 of the molar value.
REPORTED PROPERTY: pKd

>>> endpoint_value("VTGCASLYV")
"≤ 4.70"

----------
molecular target: HLA-B*44:02; assay: IEDB peptide-MHC binding, purified MHC/direct/fluorescence; filed as Kd, often an IC50 or EC50 that approximates it; bounds were set here for any values at or beyond the usual limits of such assays; details: source organism: Ravn virus - Ravn, Kenya, 1987
pKd: −log10 of the molar value.
REPORTED PROPERTY: pKd

>>> endpoint_value("NLFDWMHFL")
"≤ 4.70"

----------
molecular target: HLA-B*35:01; test: IEDB peptide-MHC binding, purified MHC/competitive/fluorescence; filed as Kd, often an IC50 or EC50 that approximates it; bounds were set here for any values at or beyond the usual limits of such assays; conditions: source organism: Japanese encephalitis virus
REPORTED PROPERTY: Kd (nM)

>>> endpoint_value("LAALGDTAW")
89.2

----------
biological target: HLA-B*15:02; experiment: IEDB peptide-MHC binding, purified MHC/competitive/fluorescence; filed as Kd, often an IC50 or EC50 that approximates it; bounds were set here for any values at or beyond the usual limits of such assays; conditions: source organism: Bacillus anthracis str. A0488
REPORTED PROPERTY: Kd (nM)

>>> endpoint_value("YLARYSGSM")
12.3

----------
target: HLA-B*08:01; experiment: IEDB peptide-MHC binding, purified MHC/direct/fluorescence; filed as Kd, often an IC50 or EC50 that approximates it; bounds were set here for any values at or beyond the usual limits of such assays; details: source organism: Mycobacterium tuberculosis str. Haarlem
Kd by entry:
REPORTED PROPERTY: Kd (nM)

>>> endpoint_value("APRGFRAAF")
100
>>> endpoint_value("RPRRASSPF")
36
>>> endpoint_value("APRARTAAF")
5

----------
target: HLA-A*02:01; experiment: IEDB peptide-MHC binding, purified MHC/direct/fluorescence; filed as Kd, often an IC50 or EC50 that approximates it; bounds were set here for any values at or beyond the usual limits of such assays; details: source organism: Camelpox virus CMS
pKd: −log10 of the molar value.
REPORTED PROPERTY: pKd

>>> endpoint_value("KVFFGPIYY")
"≤ 4.70"

----------
target: HLA-B*07:02; assay: IEDB peptide-MHC binding, purified MHC/competitive/fluorescence; filed as Kd, often an IC50 or EC50 that approximates it; bounds were set here for any values at or beyond the usual limits of such assays; settings: source organism: Influenza A virus (A/chicken/Scotland/1959(H5N1))
REPORTED PROPERTY: Kd (nM)

>>> endpoint_value("SPYRTLMSCPI")
3.6

----------
molecular target: HLA-B*40:01; test: IEDB peptide-MHC binding, purified MHC/direct/fluorescence; filed as Kd, often an IC50 or EC50 that approximates it; bounds were set here for any values at or beyond the usual limits of such assays; details: source organism: Ravn virus - Ravn, Kenya, 1987
REPORTED PROPERTY: Kd

>>> endpoint_value("NLFDWMHFL")
"≥ 20 µM"

----------
molecular target: HLA-B*40:01; test: IEDB peptide-MHC binding, purified MHC/competitive/radioactivity; filed as Kd, often an IC50 or EC50 that approximates it; bounds were set here for any values at or beyond the usual limits of such assays; conditions: source organism: Dengue virus 1 Brazil/97-11/1997
pKd: −log10 of the molar value.
REPORTED PROPERTY: pKd

>>> endpoint_value("LEKHGAERL")
7.63

----------
target: HLA-A*24:03; assay: IEDB peptide-MHC binding, purified MHC/direct/fluorescence; filed as Kd, often an IC50 or EC50 that approximates it; bounds were set here for any values at or beyond the usual limits of such assays; settings: source organism: Mammarenavirus lassaense
REPORTED PROPERTY: Kd (nM)

>>> endpoint_value("FYADPKRYF")
8

----------
target: HLA-A*02:11; assay: IEDB peptide-MHC binding, purified MHC/competitive/fluorescence; filed as Kd, often an IC50 or EC50 that approximates it; bounds were set here for any values at or beyond the usual limits of such assays; conditions: source organism: Entamoeba dispar SAW760
pKd: −log10 of the molar value.
REPORTED PROPERTY: pKd

>>> endpoint_value("KGFFRVFKK")
"≤ 4.70"

----------
molecular target: HLA-A*30:02; assay: IEDB peptide-MHC binding, purified MHC/competitive/radioactivity; filed as Kd, often an IC50 or EC50 that approximates it; bounds were set here for any values at or beyond the usual limits of such assays; conditions: source organism: Dengue virus 2 Peru/IQT2913/1996
pKd: −log10 of the molar value.
REPORTED PROPERTY: pKd

>>> endpoint_value("IVQPENLEY")
6.96

----------
target: HLA-B*08:03; experiment: IEDB peptide-MHC binding, purified MHC/direct/fluorescence; filed as Kd, often an IC50 or EC50 that approximates it; bounds were set here for any values at or beyond the usual limits of such assays; details: source organism: Ravn virus - Ravn, Kenya, 1987
pKd: −log10 of the molar value.
REPORTED PROPERTY: pKd

>>> endpoint_value("QVGIFLICK")
"≤ 4.70"

----------
log10 Kd by entry:
target: HLA-B*40:01; assay: IEDB peptide-MHC binding, purified MHC/competitive/radioactivity; filed as Kd, often an IC50 or EC50 that approximates it; bounds were set here for any values at or beyond the usual limits of such assays; conditions: source organism: Dengue virus 3 Martinique/1243/1999
REPORTED PROPERTY: log10 Kd (log10 of the value in nM)

>>> endpoint_value("AEMEEALKGL")
1.19
>>> endpoint_value("AETQNSSFI")
2.15
>>> endpoint_value("FEEVMRGKFG")
3.13
>>> endpoint_value("VEKVETWAL")
1.17
>>> endpoint_value("KEISNMLSII")
1.72

----------
target: HLA-A*02:12; experiment: IEDB peptide-MHC binding, purified MHC/competitive/fluorescence; filed as Kd, often an IC50 or EC50 that approximates it; bounds were set here for any values at or beyond the usual limits of such assays; conditions: source organism: Cryptosporidium parvum Iowa II
pKd: −log10 of the molar value.
REPORTED PROPERTY: pKd

>>> endpoint_value("RLKHIFLIF")
"≤ 4.70"

----------
biological target: HLA-B*57:01; experiment: IEDB peptide-MHC binding, purified MHC/competitive/fluorescence; filed as Kd, often an IC50 or EC50 that approximates it; bounds were set here for any values at or beyond the usual limits of such assays; conditions: source organism: Araucaria virus
REPORTED PROPERTY: Kd

>>> endpoint_value("AFMATNKAY")
"≥ 20 µM"

----------
target: HLA-B*40:01; test: IEDB peptide-MHC binding, purified MHC/direct/fluorescence; filed as Kd, often an IC50 or EC50 that approximates it; bounds were set here for any values at or beyond the usual limits of such assays; conditions: source organism: Vibrio cholerae
REPORTED PROPERTY: Kd (nM)

>>> endpoint_value("REVFDYLLP")
77

----------
biological target: HLA-B*58:01; test: IEDB peptide-MHC binding, purified MHC/direct/fluorescence; filed as Kd, often an IC50 or EC50 that approximates it; bounds were set here for any values at or beyond the usual limits of such assays; conditions: source organism: Vibrio parahaemolyticus
pKd: −log10 of the molar value.
REPORTED PROPERTY: pKd

>>> endpoint_value("DMRKRIEAF")
"≤ 4.70"

----------
pKd by entry:
target: HLA-A*11:01; assay: IEDB peptide-MHC binding, purified MHC/direct/fluorescence; filed as Kd, often an IC50 or EC50 that approximates it; bounds were set here for any values at or beyond the usual limits of such assays; conditions: source organism: West Nile virus
pKd: −log10 of the molar value.
REPORTED PROPERTY: pKd

>>> endpoint_value("VLWDTPSPK")
8.35
>>> endpoint_value("GMSWITQGL")
"≤ 4.70"
>>> endpoint_value("GRGPIRFVL")
"≤ 4.70"

----------
biological target: HLA-A*68:02; assay: IEDB peptide-MHC binding, purified MHC/direct/fluorescence; filed as Kd, often an IC50 or EC50 that approximates it; bounds were set here for any values at or beyond the usual limits of such assays; details: source organism: Aracatuba virus
pKd: −log10 of the molar value.
REPORTED PROPERTY: pKd

>>> endpoint_value("LLLLISLVY")
"≤ 4.70"
